# targetEntity: huCTLA4 (Homo sapiens, UniProt P16410)
# Sequence (P16410 36-223): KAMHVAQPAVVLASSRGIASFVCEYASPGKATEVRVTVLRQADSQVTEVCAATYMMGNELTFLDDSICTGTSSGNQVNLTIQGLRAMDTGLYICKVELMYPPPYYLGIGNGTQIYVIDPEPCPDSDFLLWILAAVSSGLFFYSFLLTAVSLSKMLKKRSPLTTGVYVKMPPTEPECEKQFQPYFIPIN
# protocolSummary: Flow binding to CHO cells stably expressing CTLA4
# Set-up: huCTLA4 and huPD-L1, full-length mammalian surface expression constructs were generated; expressed in transfected cells; host or cells: CHO cells, lentiviral transduction, sorted to >98% purity
# reportedConditions: Table E11; CHO cells stably expressing CTLA4; 33.3 nM
propertyLabel: CTLA4 MFI at 33.3 nM
Format: numeric value only, no unit, no commentary.

[in] Field request: CTLA4 MFI at 33.3 nM | item: E35D/M47L/Y53F/V68M/A71G/K93R/E95V (protein, UniProt P33681 35-288, looked up, variant E35D M47L Y53F V68M A71G K93R E95V) T-lymphocyte activation …: VIHVTKEVKEVATLSCGHNVSVEELAQTRIYWQKDKKMVLTMMSGDLNIWPEFKNRTIFDITNNLSIMILGLRPSDEGTYECVVLKYEKDAFRRVHLAEVTLSVKADFPTPSISDFEIPTSNIRRIICSTSGGFPEPHLSWLENGEELNAINTTVSQDPETELYAVSSKLDFNMTTNHSFMCLIKYGHLRVNQTFNWNTTKQEHFPDNLLPSWAITLISVNGIFVICCLTYCFAPRCRERRRNERLRRESVRPV
[out] 16013

Values were extracted from patent US20220177587A1.
